- Test system: NCI-H23 lung
- PROCEDURE SUMMARY: NCI tumour cell line growth inhibition, 48 h
Where a SMILES comes first, the peptide text is derived from it. [ ]: non-standard residue; d: D form. The star is where a group is joined. ξ: configuration not given here. Propanoyl(3-(4-MeO-Ph)) = COc1ccc(CCC(=O)*)cc1; Thr(3ξ) = CC(O)[C@H](N)C(=O)O; dNMeL = CN[C@H](CC(C)C)C(=O)O; ξLac = CC(O)C(=O)O

{"columns": ["COMPOUND", "MODIFIER SIGN", "TGI, µM"],
 "data": [
  ["O=C1C(Cl)=C(Nc2cccc(O)c2)C(=O)N1Cc1ccc(Cl)cc1", "=", 8.31],
  ["COC(=O)[C@@H](NC(=O)[C@@H](CC(C)C)N(C)C(=O)[C@@H]1CCCN1C(=O)C(C)O)C(C)OC(=O)CCc1ccc(OC)cc1 (some centres undefined) (H-[ξLac]P[dNMeL][Thr(3ξ)](Propanoyl(3-(4-MeO-Ph)))-OMe)", ">", 100],
  ["O=C(O)C(C(=O)C(=O)C(C(=O)O)c1ccc(Cl)cc1)c1ccc(Cl)cc1 (centres undefined)", "=", 5.6],
  ["Clc1cc(OCC23CC4CC(CC(C4)C2)C3)nc(OCC23CC4CC(CC(C4)C2)C3)n1", ">", 100]
]}

* * *

- System: OVCAR-3 ovarian
- PROCEDURE SUMMARY: NCI tumour cell line growth inhibition, 48 h; in the data active = GI50 below about 0.43 µM; inactive = the rest
Possible outcomes: t (active), f (inactive)

{"columns": ["COMPOUND", "ASSIGNED CATEGORY"],
 "data": [
  ["O=CC(Br)C(Br)c1ccccc1 (stereo unspecified)", "f"],
  ["CC(C)[NH-].CC(C)[NH-].O.O.[Cl][Pt+2][Cl]", "f"],
  ["O=C1NC(=O)C(c2ccc(Cl)cc2)=C1Nc1ccc(Cl)c(C(=O)O)c1", "f"],
  ["Oc1ccc2ccccc2c1C1NN=C(c2ccccc2)S1 (stereo unspecified)", "f"],
  ["C[n+]1c2ccccc2c(Nc2ccc(NS(=O)(=O)CCCCN=C(N)N)cc2)c2ccc(N)cc21", "f"],
  ["Cn1c(/C=C(\\C#N)c2cccc(C(F)(F)F)c2)nc2c(N3CCOCC3)nc(Cl)nc21", "f"],
  ["CC(=O)OC(C)(C)/C=C/C(=O)[C@](C)(O)[C@H]1[C@H](O)C[C@@]2(C)[C@@H]3CC=C4[C@@H](C[C@H](O)C(=O)C4(C)C)[C@]3(CO)C(=O)C[C@]12C", "t"],
  ["COc1ccc(-c2cn(-c3cccc(C(=O)/C=C/c4ccc(O)c(OC)c4)c3)c(=O)[nH]2)cc1", "f"],
  ["O=C(O)c1ccc2c3c(ncnc13)-c1ccccc1C2=O", "f"],
  ["C[C@]1(C(=O)O)N[C@H](C(=O)O)CS1", "f"],
  ["c1cncc(-c2nc3ccccc3s2)c1", "f"]
]}

* * *

Reported values of TGI for individual entries
- System: SK-MEL-2 melanoma
- PROCEDURE SUMMARY: NCI tumour cell line growth inhibition, 48 h
PROPERTY LABEL: TGI

{"columns": ["COMPOUND", "DATA VALUE"],
 "data": [
  ["N#CCSc1c(-c2ccccc2)c(=O)n(-c2ccccc2)c(=S)n1-c1ccccc1", "> 100 µM"],
  ["COC(=O)[C@@]12OC[C@]34C([C@@H](O)C1O)[C@@]1(C)CC(=O)C(O)=C(C)C1C[C@H]3OC(=O)[C@H](OC(=O)/C=C(/c1ccccc1)C(F)(F)F)[C@H]42 (stereo partly specified)", "> 25 µM"],
  ["COc1ccc(-c2nnc(CCCCCCCCc3nnc(-c4ccc(OC)cc4)n3N)n2N)cc1", "> 100 µM"],
  ["Cn1c(N=[N+]=[N-])cc(=O)n(C)c1=O", "> 100 µM"],
  ["Oc1ccc2ccccc2c1C1NN=C(c2ccccc2)S1 (stereo unspecified)", "14.9 µM"],
  ["CC(C)(C)c1cc(/C=C/C(=O)CC(=O)/C=C/c2cc(C(C)(C)C)c(O)c(C(C)(C)C)c2)cc(C(C)(C)C)c1O", "> 50 µM"],
  ["Cc1cc(Oc2cnc(=O)[nH]c2)cs1", "> 100 µM"],
  ["COc1cc2cc3c4c(cc(OC)c(OC)c4c2cc1OC)CCN3C(=O)N(C)C", "> 100 µM"],
  ["CC1(C)OCC(COC(=O)NCn2cc(-c3ccccc3)nn2)O1 (stereo unspecified)", "> 100 µM"],
  ["CN(C)CCNC(=O)c1cccc2[nH]c(-c3ccncc3)nc12", "11.5 µM"],
  ["CCCCCC(O)(CCCCC)CCCCCCCCC1=C(O)c2ccccc2C(=O)C1=O", "27.7 µM"],
  ["CC(C)=CCCC1(Sc2ccccc2)C(=O)OCC1C=C(C)C (stereo unspecified)", "55.8 µM"],
  ["C=CC[N+](CCO)(CCO)CCCCCCCCCCCCCCCCCC", "32.7 µM"],
  ["CCCCOC(=O)c1ccc(NC(=O)CCl)cc1", "15.9 µM"],
  ["COC12OC3CC4(C)C(=CC3OC(OC(C)C1O)C2O)CCC1C4CCC2(C)C(c3ccc(=O)oc3)CCC12O (stereo unspecified)", "0.00448 µM"],
  ["CC1=Nc2c(C#N)ncn2N=C(C)C1", "> 100 µM"],
  ["COC1=C2C[C@H](O)C(C)C[C@@]2(OC)OC1=O (stereo partly specified)", "> 100 µM"],
  ["CCC(=O)C(C)C(=O)C(=O)C(=O)OC (stereo unspecified)", "> 100 µM"],
  ["O=C1OC(c2ccc(Cl)cc2)(c2ccc(Cl)cc2)c2c1ccc1ccccc21", "> 100 µM"],
  ["c1cncc(-c2nc3ccccc3s2)c1", "> 100 µM"],
  ["CN[C@@H]1C[C@H]2O[C@@](C)([C@@H]1OC)n1c3ccccc3c3c4c(c5c6ccccc6n2c5c31)C(=O)N[C@H]4O", "0.853 µM"]
]}
